Reported IC50 is given for each of the following compounds.
tested on: NCI-H1975; assay: Cytotoxicity against human NCI-H1975 cells assessed as inhibition of cell growth incubated for 24 hrs by CCK-8 assay; assay type: functional, cell-based; details: NCI-H1975, 24 h
RECORDED ENDPOINT: IC50

| CHEMICAL STRUCTURE | SYSTEM TESTED | MEASURED RESULT |
| --- | --- | --- |
| COc1ccc(-c2cc3c(c(=O)o2)C[C@]2(O)[C@@]4(C)[C@H](O)C[C@@H](OC(C)=O)C(C)(C)[C@]4(O)CC[C@@]2(C)O3)cc1 | NCI-H1975 | > 80 µM |
| COc1ccc(-c2cc3c(c(=O)o2)C[C@]2(O)[C@@]45CO[C@@H](CC4=O)C(C)(C)[C@]5(O)CC[C@@]2(C)O3)cc1OC | NCI-H1975 | > 80 µM |
| COc1ccc(-c2cc3c(c(=O)o2)C[C@H]2[C@@](C)(CC[C@@]4(O)C(C)(C)C(=O)C=C[C@]24C)O3)cc1 | NCI-H1975 | > 80 µM |
| COc1cc(-c2cc3c(c(=O)o2)C[C@]2(O)[C@@]45CO[C@@H](CC4=O)C(C)(C)[C@]5(O)CC[C@@]2(C)O3)cc(OC)c1OC | NCI-H1975 | > 80 µM |
| COc1ccc(-c2cc3c(c(=O)o2)C[C@]24O[C@]25[C@H](C)C[C@@H](O)C(C)(C)[C@]5(O)CC[C@@]4(C)O3)cc1 | NCI-H1975 | > 80 µM |
| COc1cc(-c2cc3c(c(=O)o2)C[C@]2(O)[C@@]45CO[C@@H](CC4=O)C(C)(C)[C@]5(O)CC[C@@]2(C)O3)cc2c1OCO2 | NCI-H1975 | 15 µM |
| COc1ccc(-c2cc3c(c(=O)o2)C[C@]2(O)[C@@]45O[C@]4(CC[C@@]2(C)O3)C(C)(C)[C@H](O)C[C@H]5C)cc1 | NCI-H1975 | 67 µM |
| COc1ccc(-c2cc3c(c(=O)o2)C[C@H]2[C@@](C)(CC[C@@]45O[C@@](O)(OC4(C)C)[C@H](O)C[C@]25C)O3)cc1 | NCI-H1975 | > 80 µM |
| COc1ccc(-c2cc3c(c(=O)o2)C[C@H]2[C@@](C)(CC[C@@]4(O)C(C)(C)OC(=O)[C@H](O)C[C@]24C)O3)cc1 | NCI-H1975 | > 80 µM |
